Numbers sourced from patent US9932311B2.

target or system: UniProt O14842
Sequence (O14842 whole entry): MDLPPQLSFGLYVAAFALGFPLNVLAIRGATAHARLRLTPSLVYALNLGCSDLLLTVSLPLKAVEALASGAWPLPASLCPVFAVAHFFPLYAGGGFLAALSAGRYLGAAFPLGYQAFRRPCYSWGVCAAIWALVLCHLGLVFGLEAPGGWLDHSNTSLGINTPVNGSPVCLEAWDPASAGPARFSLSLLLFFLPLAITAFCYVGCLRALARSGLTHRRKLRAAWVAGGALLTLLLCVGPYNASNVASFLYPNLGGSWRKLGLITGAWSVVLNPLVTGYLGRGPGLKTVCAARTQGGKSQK
experimental details: Inositol Phosphate Turnover (IP1) Assay 1
Format: cell-based
Design: expressed in transfected cells; host or cells: HEK cells stably expressing the aequorin reporter
settings: HEK cells stably expressing human GPR40, 96-well, 3H-inositol labeling, SPA beads
reported metric: EC50 (nM)
Supply the numeric figure in nM, leaving out any unit text.

Use these answered entries as a reference point.
{"smiles notation": "CC(C)(O)CCOc1ccc(-c2cc(COc3cc4c(cn3)[C@H]3[C@@H](C4)[C@@H]3C(=O)O)c(F)cc2C(F)(F)F)c(F)c1", "reported metric": "EC50", "assay value": 11.4}
{"smiles notation": "CS(=O)(=O)CCCOc1ccc(-c2cc(COc3cc4c(cn3)[C@H]3[C@@H](C4)[C@@H]3C(=O)O)c(F)cc2C(F)(F)F)c(F)c1", "reported metric": "EC50", "assay value": 6.54}
{"smiles notation": "Cc1cc(OCC[C@H](O)CO)cc(C)c1-c1cc(COc2cc3c(cn2)[C@H]2[C@@H](C3)[C@@H]2C(=O)O)c(F)cc1F", "reported metric": "EC50", "assay value": 4.6}
{"smiles notation": "Cc1cc(OCCCS(C)(=O)=O)ccc1-c1cc(COc2cc3c(cn2)[C@H]2[C@@H](C3)[C@@H]2C(=O)O)c(F)cc1C(F)(F)F", "reported metric": "EC50", "assay value": 2.98}
{"smiles notation": "CC(C)(O)CCOc1ccc(-c2cc(COc3cc4c(cn3)[C@H]3[C@@H](C4)[C@@H]3C(=O)O)c(F)cc2C(F)(F)F)c(C(F)F)c1", "reported metric": "EC50", "assay value": 5.94}

Next up:
Returns the measured EC50 for the input compound. Input: Cc1cc(OCCC(C)(C)O)ccc1-c1cc(COc2cc3c(cn2)[C@H]2[C@@H](C3)[C@@H]2C(=O)O)c(F)cc1C(F)(F)F
9.89
